Listed below: selectivity ratio values for each entry.
assay: Protective index is the ratio of TD50 to ED50; type: ADME; conditions: read-out: Protective index
assayMetric: selectivity ratio

INSERT INTO measurements (molecule, reportedresult) VALUES
  ('CCC(NC(=O)c1ccc(N)cc1)c1ccccc1 (configuration not stated)', 1.76),
  ('CC(NCc1cccc(N)c1)c1ccccc1 (configuration not stated)', 1.53),
  ('CC(NC(=O)c1ccc(CN(C)C)cc1)c1ccccc1 (configuration not stated)', 2.63),
  ('CC(NC(=O)c1ccccc1)c1ccc(N)cc1 (configuration not stated)', 2.79),
  ('CC(NCc1ccc(N)cc1)c1ccccc1 (configuration not stated)', 1.4),
  ('CNCc1ccc(C(=O)NC(C)c2ccccc2)cc1 (configuration not stated)', 1.66),
  ('CCCC(NC(=O)c1ccc(N)cc1)c1ccccc1 (configuration not stated)', 4.03);

---

Each record here notes measured ED50.
system: Mus musculus; test: Compound was evaluated for anticonvulsant activity against subcutaneous pentylenetetrazole-induced convulsions; type: functional; conditions: sc
assayMetric: ED50 (mg/kg)

INSERT INTO measurements (molecule, assaymetric, units, reportedresult) VALUES
  ('CCCC(NC(=O)c1ccc(N)cc1)c1ccccc1 (centres undefined)', 'ED50', 'mg/kg', 78.8),
  ('CCC(NC(=O)c1ccc(N)cc1)c1ccccc1 (centres undefined)', 'ED50', 'mg/kg', 54.1),
  ('CC(NC(=O)c1ccccc1)c1ccc(N)cc1 (centres undefined)', 'ED50', 'mg/kg', 126),
  ('CCCCC(NC(=O)c1ccc(N)cc1)c1ccccc1 (centres undefined)', 'ED50', 'mg/kg', 161);

---

assay: Lethal dose was evaluated in mice; type: toxicity, organism-based; settings: mouse, in vivo
assayMetric: LD50 (mg/kg)

INSERT INTO results (compound, reportedresult) VALUES
  ('CC(NC(=O)c1ccc(N)cc1)c1ccccc1 (stereo unspecified)', 718);

---

assay: Compound was evaluated for anticonvulsant activity by rotarod procedure; assay type: ADME, organism-based; conditions: mouse, in vivo
assayMetric: TD50 (mg/kg)

INSERT INTO results (compound, reportedresult) VALUES
  ('CCCC(NC(=O)c1ccc(N)cc1)c1ccccc1 (stereo not drawn)', 378),
  ('CC(NC(=O)c1ccccc1)c1ccc(N)cc1 (stereo not drawn)', 190),
  ('CC(NC(=O)c1ccc(CN(C)C)cc1)c1ccccc1 (stereo not drawn)', 34.3),
  ('CNCc1ccc(C(=O)NC(C)c2ccccc2)cc1 (stereo not drawn)', 22.4),
  ('CCCCC(NC(=O)c1ccc(N)cc1)c1ccccc1 (stereo not drawn)', 332),
  ('CCC(NC(=O)c1ccc(N)cc1)c1ccccc1 (stereo not drawn)', 95.4),
  ('CC(NCc1ccc(N)cc1)c1ccccc1 (stereo not drawn)', 15.5),
  ('CC(NCc1cccc(N)c1)c1ccccc1 (stereo not drawn)', 49.7);
